Catalogue of compounds with associated log10 of t1/2
test: Stability in mouse liver microsomes assessed as half life; format: ADME, Microsome
reported-metric: log10 of t1/2 (log10 of the value in min)

[
  {
    "substance-smiles": "Cc1noc(C)c1-c1ccc2nc(-c3cnn(CC(C)(C)O)c3)nc(N3CCOC[C@@H]3C3CCC3)c2c1",
    "recorded-number": 1.26
  },
  {
    "substance-smiles": "Cc1noc(C)c1-c1ccc2nc(-c3cnn(CC(C)(C)O)c3)nc(N3CCOC[C@@H]3c3ccc(F)cc3)c2c1",
    "recorded-number": 1.72
  },
  {
    "substance-smiles": "Cc1noc(C)c1-c1ccc2nc(-c3cnn(CC(C)(C)O)c3)nc(N3CCOC[C@@H]3C3CCCCC3)c2c1",
    "recorded-number": 0.60
  },
  {
    "substance-smiles": "Cc1noc(C)c1-c1ccc2nc(-c3cnn(CC(C)(C)O)c3)nc(N3CCOC[C@@H]3C3CCCC3)c2c1",
    "recorded-number": 0.30
  },
  {
    "substance-smiles": "Cc1noc(C)c1-c1ccc2nc(-c3cnn(CC(C)(C)O)c3)nc(N3CCOC[C@@H]3c3ccccc3)c2c1",
    "recorded-number": 1.34
  },
  {
    "substance-smiles": "Cc1noc(C)c1-c1ccc2nc(-c3cnn(CC(C)(C)O)c3)nc(N3CCOC[C@@H]3C3CC3)c2c1",
    "recorded-number": 2.01
  }
]

---

experiment: Drug uptake in tumor tissue of CB17 SCID mouse xenografted with human Kasumi-1 cells at 40 mg/kg, po QD for 25 days and measured after 24 hrs post last dose; type: ADME, organism-based, Neoplasm; settings: time 25 day, read-out: Drug uptake
reported-metric: concentration at 600 h (ng/g)

[
  {
    "substance-smiles": "Cc1noc(C)c1-c1ccc2nc(-c3cnn(CC(C)(C)O)c3)nc(N3CCOC[C@@H]3c3ccccc3)c2c1",
    "recorded-number": 2260
  },
  {
    "substance-smiles": "Cc1noc(C)c1-c1ccc2nc(-c3cnn(CC(C)(C)O)c3)nc(N3CCOC[C@@H]3C3CC3)c2c1",
    "recorded-number": 4210
  },
  {
    "substance-smiles": "CCNC(=O)C[C@@H]1N=C(c2ccc(Cl)cc2)c2cc(OC)ccc2-n2c(C)nnc21",
    "recorded-number": 16
  }
]

---

molecular target: Bromodomain-containing protein 4 (Homo sapiens); test: Competitive binding affinity to human partial length BRD4 (BD1,2) (N44 to E460 residues) expressed in bacterial expression system by BROMOscan assay
pKd: −log10 of the molar value.
Answer not fulfilled if pKd is under 7, and fulfilled if it is 7 or more.

[
  {
    "substance-smiles": "Cn1cc(-c2ccc3nc(-c4cnn(CC(C)(C)O)c4)nc(N4CCOC[C@@H]4C4CC4)c3c2)ccc1=O",
    "category-label": "not fulfilled"
  },
  {
    "substance-smiles": "Cc1cc(-c2ccc3nc(-c4cnn(CC(C)(C)O)c4)nc(N4CCOC[C@@H]4c4ccc(F)cc4)c3c2)cn(C)c1=O",
    "category-label": "fulfilled"
  },
  {
    "substance-smiles": "Cn1cc(-c2ccc3nc(-c4cnn(CC(C)(C)O)c4)nc(N4CCOC[C@@H]4c4cccs4)c3c2)ccc1=O",
    "category-label": "not fulfilled"
  },
  {
    "substance-smiles": "Cc1noc(C)c1-c1ccc2nc(-c3cnn(CC(C)(C)O)c3)nc(N3CCOC[C@@H]3C3CC3)c2c1",
    "category-label": "not fulfilled"
  },
  {
    "substance-smiles": "Cc1noc(C)c1-c1ccc2nc(N3CCC4(CCC(=O)N4C)CC3)nc(N3CCOC[C@@H]3c3ccccc3)c2c1",
    "category-label": "fulfilled"
  },
  {
    "substance-smiles": "Cc1noc(C)c1-c1ccc2nc(-c3cnn(CC(C)(C)O)c3)nc(N3CCOC[C@@H]3c3cccs3)c2c1",
    "category-label": "not fulfilled"
  },
  {
    "substance-smiles": "Cc1noc(C)c1-c1ccc2nc(-c3cnn(CC(C)(C)O)c3)nc(N3CCOC[C@H]3c3ccccc3)c2c1",
    "category-label": "not fulfilled"
  }
]

---

molecular target: Bromodomain-containing protein 4 (Homo sapiens, UniProt O60885); experiment: Binding affinity to human partial length BRD4 (BD2) (K333 to E460 residues) expressed in bacterial expression system by BROMOscan assay
pKd: −log10 of the molar value.

[
  {
    "substance-smiles": "Cc1noc(C)c1-c1ccc2nc(-c3cnn(CC(C)(C)O)c3)nc(N3CCOC[C@@H]3c3ccccc3)c2c1",
    "pKd": 7.09
  }
]

---

biological target: Bromodomain-containing protein 4 (Homo sapiens, UniProt O60885); assay: Inhibition of human full-length recombinant N-terminal His-tagged BRD4 (2 to 1362 residues) expressed in Sf9 cells using histone H4 peptide containing acetylated lysine residues as substrate preincubated with enzyme for 30 mins followed by incubation with substrate for 30 mins by Alphascreen assay […]
reported-metric: IC50 (nM)

[
  {
    "substance-smiles": "Cc1noc(C)c1-c1ccc2nc(-c3cnn(CC(C)(C)O)c3)nc(N3CCOC[C@@H]3c3ccc(F)cc3)c2c1",
    "assay-system": "Bromodomain-containing protein 4 (Homo sapiens, UniProt O60885)",
    "units": "nM",
    "recorded-number": 13
  },
  {
    "substance-smiles": "Cc1cc(-c2ccc3nc(-c4cnn(CC(C)(C)O)c4)nc(N4CCOC[C@@H]4c4ccccc4)c3c2)cn(C)c1=O",
    "assay-system": "Bromodomain-containing protein 4 (Homo sapiens, UniProt O60885)",
    "units": "nM",
    "recorded-number": 11
  },
  {
    "substance-smiles": "Cc1cc(-c2ccc3nc(-c4cnn(CC(C)(C)O)c4)nc(N4CCOC[C@@H]4c4ccc(F)cc4)c3c2)cn(C)c1=O",
    "assay-system": "Bromodomain-containing protein 4 (Homo sapiens, UniProt O60885)",
    "units": "nM",
    "recorded-number": 6
  },
  {
    "substance-smiles": "Cn1cc(-c2ccc3nc(-c4cnn(CC(C)(C)O)c4)nc(N4CCOC[C@@H]4c4cccs4)c3c2)ccc1=O",
    "assay-system": "Bromodomain-containing protein 4 (Homo sapiens, UniProt O60885)",
    "units": "nM",
    "recorded-number": 165
  }
]

---

Item-by-item account of half-life
assay: Half life in CD-1 mouse at 10 mg/kg, po; type: ADME, organism-based; details: in vivo

[
  {
    "substance-smiles": "Cn1cc(-c2ccc3nc(-c4cnn(CC(C)(C)O)c4)nc(N4CCOC[C@@H]4c4ccccc4)c3c2)ccc1=O",
    "half-life / h": 1.5
  },
  {
    "substance-smiles": "Cc1noc(C)c1-c1ccc2nc(-c3cnn(CC(C)(C)O)c3)nc(N3CCN(S(C)(=O)=O)C[C@@H]3c3ccccc3)c2c1",
    "half-life / h": 1.7
  },
  {
    "substance-smiles": "Cn1cc(-c2ccc3nc(-c4cnn(CC(C)(C)O)c4)nc(N4CCOC[C@@H]4c4cccs4)c3c2)ccc1=O",
    "half-life / h": 1.6
  }
]

---

test: Volume of distribution at steady state in CD-1 mouse at 2 mg/kg, iv; format: ADME, organism-based; settings: in vivo, read-out: Vdss
Assign class by Vd: not lower than 1 L/kg means satisfied; lower than 1 L/kg means not satisfied.

[
  {
    "substance-smiles": "Cn1cc(-c2ccc3nc(-c4cnn(CC(C)(C)O)c4)nc(N4CCOC[C@@H]4c4ccccc4)c3c2)ccc1=O",
    "category-label": "satisfied"
  },
  {
    "substance-smiles": "Cc1noc(C)c1-c1ccc2nc(-c3cnn(CC(C)(C)O)c3)nc(N3CCOC[C@@H]3c3ccccc3)c2c1",
    "category-label": "satisfied"
  },
  {
    "substance-smiles": "Cc1noc(C)c1-c1ccc2nc(-c3cnn(CC(C)(C)O)c3)nc(N3CCOC[C@@H]3c3ccc(F)cc3)c2c1",
    "category-label": "satisfied"
  },
  {
    "substance-smiles": "Cc1noc(C)c1-c1ccc2nc(-c3cnn(CC(C)(C)O)c3)nc(N3CCN(S(C)(=O)=O)C[C@@H]3c3ccccc3)c2c1",
    "category-label": "not satisfied"
  },
  {
    "substance-smiles": "Cc1cc(-c2ccc3nc(-c4cnn(CC(C)(C)O)c4)nc(N4CCOC[C@@H]4c4ccccc4)c3c2)cn(C)c1=O",
    "category-label": "not satisfied"
  },
  {
    "substance-smiles": "Cc1noc(C)c1-c1ccc2nc(-c3cnn(CC(C)(C)O)c3)nc(N3CCOC[C@@H]3c3ccc(Cl)cc3)c2c1",
    "category-label": "satisfied"
  }
]

---

experiment: Cmax in CD-1 mouse at 10 mg/kg, po; assay type: ADME, organism-based; set-up: route oral, dose 10 mg/kg; settings: CD-1, mouse, in vivo, read-out: Cmax
Item-by-item account of Cmax

[
  {
    "substance-smiles": "Cn1cc(-c2ccc3nc(-c4cnn(CC(C)(C)O)c4)nc(N4CCOC[C@@H]4c4cccs4)c3c2)ccc1=O",
    "Cmax, ng/mL": 2090
  },
  {
    "substance-smiles": "Cc1noc(C)c1-c1ccc2nc(-c3cnn(CC(C)(C)O)c3)nc(N3CCOC[C@@H]3C3CC3)c2c1",
    "Cmax, ng/mL": 2040
  },
  {
    "substance-smiles": "Cc1cc(-c2ccc3nc(-c4cnn(CC(C)(C)O)c4)nc(N4CCOC[C@@H]4c4ccccc4)c3c2)cn(C)c1=O",
    "Cmax, ng/mL": 2870
  },
  {
    "substance-smiles": "Cc1noc(C)c1-c1ccc2nc(-c3cnn(CC(C)(C)O)c3)nc(N3CCOC[C@@H]3c3ccccc3)c2c1",
    "Cmax, ng/mL": 2160
  },
  {
    "substance-smiles": "CC(=O)N1CCN(c2nc(-c3cnn(CC(C)(C)O)c3)nc3ccc(-c4c(C)noc4C)cc23)[C@@H](c2ccccc2)C1",
    "Cmax, ng/mL": 3450
  },
  {
    "substance-smiles": "Cn1cc(-c2ccc3nc(-c4cnn(CC(C)(C)O)c4)nc(N4CCOC[C@@H]4c4ccccc4)c3c2)ccc1=O",
    "Cmax, ng/mL": 1980
  },
  {
    "substance-smiles": "Cc1noc(C)c1-c1ccc2nc(-c3cnn(CC(C)(C)O)c3)nc(N3CCOC[C@@H]3c3ccc(F)cc3)c2c1",
    "Cmax, ng/mL": 2080
  },
  {
    "substance-smiles": "Cc1noc(C)c1-c1ccc2nc(-c3cnn(CC(C)(C)O)c3)nc(N3CCOC[C@@H]3c3cccs3)c2c1",
    "Cmax, ng/mL": 2220
  }
]
